protocol notes: in vivo
test parameters: both, Swiss, mouse, po
LD50 reference
Give the figure together with its unit, number first.

Examples with their reported LD50 follow.
molecule	assay value
CCCC(=O)O [butyric acid, reference compound]	8800 mg/kg
CCCC(=O)NC(=O)C(Cc1ccccc1)NC(=O)CCC (stereo not shown)	16300 mg/kg
CCCC1=NC(=O)C(Cc2ccccc2)N1 (stereo not shown)	21600 mg/kg

Prompt: Look up LD50 for this molecule: CCCC(=O)NC(Cc1ccccc1)C(N)=O (stereo not shown) [Compound 1, N-(1-carbamoyl-2-phenyl-ethyl)butyramide]
Completion: 23800 mg/kg
